Molecular target: human CB2 receptor (Homo sapiens, UniProt P34972)
Construct: host or cells: CHO-K1 (Chinese hamster ovary) cells, membrane preparation
Sequence (P34972 whole entry): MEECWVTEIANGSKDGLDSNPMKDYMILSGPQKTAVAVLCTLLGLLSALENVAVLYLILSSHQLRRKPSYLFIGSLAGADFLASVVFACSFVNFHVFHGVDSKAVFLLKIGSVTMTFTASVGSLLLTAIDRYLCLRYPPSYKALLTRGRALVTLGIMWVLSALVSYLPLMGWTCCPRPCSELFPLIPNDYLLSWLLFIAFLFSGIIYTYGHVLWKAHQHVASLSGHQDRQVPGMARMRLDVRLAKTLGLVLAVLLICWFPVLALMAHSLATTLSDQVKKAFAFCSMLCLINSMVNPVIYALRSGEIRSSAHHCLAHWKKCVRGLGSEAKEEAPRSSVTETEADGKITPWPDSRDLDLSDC
Assay: CB2 radioligand competitive binding assay ([3H]CP 55,940 displacement)
Conditions: given in the column of the receptor with the higher binding affinity; 1.00 in both = about the same affinity
observable: Selectivity CB2 (fold difference in selectivity between CB1 and CB2 binding) (fold)

compound="C=C(C)C1CCC(C)=CC1c1c(O)cc(C(C)(C)CCCCCC)cc1OP(=O)(Cc1ccccc1)OCC (stereo not shown) [Example 39d]" quantitative_readout=1.10
compound="C=C(C)C1CCC(C)=CC1c1c(O)cc(C(C)(C)CCCCCC)cc1OP(=O)(Cc1ccccc1)OC (stereo not shown) [Example 38d]" quantitative_readout=1.82
compound="C=C(C)C1CCC(C)=CC1c1c(O)cc(C(C)(C)CCCCCC)cc1OP(=O)(OC)c1ccccc1 (stereo not shown) [Example 37d]" quantitative_readout=2.02
compound="CCCCCc1cc(O)c(C2C=C(C)CCC2)c(OP(=O)(Cc2ccccc2)OCC)c1 (stereo not shown) [Example 35c]" quantitative_readout=3.25
compound="CCCCCc1cc(O)c(C2C=C(C)CCC2)c(OP(=O)(Cc2ccccc2)OC)c1 (stereo not shown)" quantitative_readout=1.54
compound="CCCCCc1cc(O)c(-c2cccc(C)c2)c(OP(=O)(OCC)c2ccccc2)c1 (stereo not shown) [Example 34a]" quantitative_readout=10.26
compound="CCCCCCC(C)(C)c1cc(O)c(C2C=C(C)CCC2)c(OP(=O)(Cc2ccccc2)OC)c1 (stereo not shown) [Example 38c]" quantitative_readout=4.96
compound="CCCCCc1cc(OP(=O)(OCC)c2ccccc2)c(-c2cccc(C)c2)c(OP(=O)(OCC)c2ccccc2)c1 (stereo not shown)" quantitative_readout=1.95
compound="C=C(C)C1CCC(C)=CC1c1c(O)cc(CCCCC)cc1OP(=O)(Cc1ccccc1)OC (stereo not shown)" quantitative_readout=1.00
compound="CCCCCc1cc(O)c(C2C=C(C)CCC2)c(OP(=O)(OCC)c2ccccc2)c1 (stereo not shown) [Example 34c]" quantitative_readout=1.69

---

Target: human CB1 receptor (Homo sapiens, UniProt P21554)
Construct: host or cells: CHO-K1 (Chinese hamster ovary) cells, membrane preparation
Sequence (P21554 whole entry): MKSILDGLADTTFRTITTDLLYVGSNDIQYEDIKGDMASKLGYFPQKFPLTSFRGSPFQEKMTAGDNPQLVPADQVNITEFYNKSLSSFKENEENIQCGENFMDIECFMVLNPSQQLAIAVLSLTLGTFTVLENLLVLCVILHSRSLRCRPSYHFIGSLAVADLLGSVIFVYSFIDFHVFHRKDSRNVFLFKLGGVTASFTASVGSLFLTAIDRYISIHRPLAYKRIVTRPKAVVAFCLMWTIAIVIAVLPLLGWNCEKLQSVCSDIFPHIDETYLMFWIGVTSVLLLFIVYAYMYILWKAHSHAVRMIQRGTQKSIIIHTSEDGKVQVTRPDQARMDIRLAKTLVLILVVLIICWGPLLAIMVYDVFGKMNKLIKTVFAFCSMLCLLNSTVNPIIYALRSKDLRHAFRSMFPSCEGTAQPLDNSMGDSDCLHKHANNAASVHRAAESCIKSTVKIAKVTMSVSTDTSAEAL
Assay: CB1 radioligand competitive binding assay ([3H]CP 55,940 displacement)
Conditions: membranes of CHO-K1 cells expressing human CB1 receptor, 0.8 nM [3H]CP 55,940
observable: IC50

molecule="CCCCCc1cc(OP(=O)(OCC)c2ccccc2)c(-c2cccc(C)c2)c(OP(=O)(OCC)c2ccccc2)c1 (stereo not shown)" result="1000 to 4990 nM"
molecule="C=C(C)C1CCC(C)=CC1c1c(O)cc(C(C)(C)CCCCCC)cc1OP(=O)(Cc1ccccc1)OCC (stereo not shown) [Example 39d]" result="500 to 990 nM"
molecule="CCCCCc1cc(O)c(C2C=C(C)CCC2)c(OP(=O)(Cc2ccccc2)OCC)c1 (stereo not shown) [Example 35c]" result="≥ 5000 nM"
molecule="C=C(C)C1CCC(C)=CC1c1c(O)cc(C(C)(C)CCCCCC)cc1OP(=O)(Cc1ccccc1)OC (stereo not shown) [Example 38d]" result="500 to 990 nM"

---

Target: human CB1 receptor (Homo sapiens)
Construct: host or cells: CHO-K1 (Chinese hamster ovary) cells, membrane preparation
Assay: CB1 radioligand competitive binding assay ([3H]CP 55,940 displacement)
Conditions: membranes of CHO-K1 cells expressing human CB1 receptor, 0.8 nM [3H]CP 55,940
pIC50: −log10 of the molar value.
Documented pIC50 across a set of molecules
observable: pIC50

molecule="CCCCCCC(C)(C)c1cc(O)c(C2C=C(C)CCC2)c(OP(=O)(Cc2ccccc2)OC)c1 (stereo not drawn) [Example 38c]" result="5.30 to 6.00"
molecule="CCCCCc1cc(O)c(-c2cccc(C)c2)c(OP(=O)(OCC)c2ccccc2)c1 (stereo not drawn) [Example 34a]" result="5.30 to 6.00"
molecule="CCCCCc1cc(O)c(C2C=C(C)CCC2)c(OP(=O)(OCC)c2ccccc2)c1 (stereo not drawn) [Example 34c]" result="5.30 to 6.00"
molecule="CCCCCc1cc(O)c(C2C=C(C)CCC2)c(OP(=O)(Cc2ccccc2)OC)c1 (stereo not drawn) [Example 4c]" result="5.30 to 6.00"
molecule="C=C(C)C1CCC(C)=CC1c1c(O)cc(C(C)(C)CCCCCC)cc1OP(=O)(OC)c1ccccc1 (stereo not drawn) [Example 37d]" result="6.00 to 6.30"
molecule="C=C(C)C1CCC(C)=CC1c1c(O)cc(CCCCC)cc1OP(=O)(Cc1ccccc1)OC (stereo not drawn) [Example 4d]" result="> 6.30"

---

Molecular target: human CB2 receptor (Homo sapiens)
observable: IC50

molecule="CCCCCc1cc(O)c(C2C=C(C)CCC2)c(OP(=O)(OCC)c2ccccc2)c1 (stereo not drawn) [Example 34c]" observable=IC50 result="1000 to 4990 nM"
molecule="C=C(C)C1CCC(C)=CC1c1c(O)cc(C(C)(C)CCCCCC)cc1OP(=O)(Cc1ccccc1)OC (stereo not drawn) [Example 38d]" observable=IC50 result="< 500 nM"
molecule="CCCCCCC(C)(C)c1cc(O)c(C2C=C(C)CCC2)c(OP(=O)(Cc2ccccc2)OC)c1 (stereo not drawn) [Example 38c]" observable=IC50 result="500 to 990 nM"

---

Here we list molecules with their recorded IC50 when tested on human CB2 receptor (Homo sapiens, UniProt P34972).
observable: IC50

molecule="C=C(C)C1CCC(C)=CC1c1c(O)cc(C(C)(C)CCCCCC)cc1OP(=O)(Cc1ccccc1)OCC (centres unmarked) [Example 39d]" observable=IC50 result="0.5 to 0.99 µM"
molecule="C=C(C)C1CCC(C)=CC1c1c(O)cc(CCCCC)cc1OP(=O)(Cc1ccccc1)OC (centres unmarked)" observable=IC50 result="< 0.5 µM"
molecule="C=C(C)C1CCC(C)=CC1c1c(O)cc(C(C)(C)CCCCCC)cc1OP(=O)(OC)c1ccccc1 (centres unmarked) [Example 37d]" observable=IC50 result="< 0.5 µM"
molecule="CCCCCc1cc(O)c(-c2cccc(C)c2)c(OP(=O)(Cc2ccccc2)OCC)c1 (centres unmarked) [Example 35a]" observable=IC50 result="1 to 4.99 µM"
molecule="CCCCCc1cc(O)c(C2C=C(C)CCC2)c(OP(=O)(Cc2ccccc2)OCC)c1 (centres unmarked) [Example 35c]" observable=IC50 result="1 to 4.99 µM"
molecule="CCCCCc1cc(OP(=O)(OCC)c2ccccc2)c(-c2cccc(C)c2)c(OP(=O)(OCC)c2ccccc2)c1 (centres unmarked)" observable=IC50 result="1 to 4.99 µM"
molecule="CCCCCc1cc(O)c(-c2cccc(C)c2)c(OP(=O)(OCC)c2ccccc2)c1 (centres unmarked) [Example 34a]" observable=IC50 result="< 0.5 µM"
molecule="CCCCCc1cc(O)c(C2C=C(C)CCC2)c(OP(=O)(Cc2ccccc2)OC)c1 (centres unmarked)" observable=IC50 result="1 to 4.99 µM"
